Values from the supplement of paper PMC10567573

B1: ZNF511 (parent)
chain: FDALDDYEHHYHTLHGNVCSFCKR

Variants of: B1
Assay: protein stability index of a GFP-peptide fusion (GPS, HEK-293T) (PSI 1-6); higher = more stable;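 further: lentivirally expressed fusions sorted by FACS into six bins by GFP to DsRed ratio, PSI derived from sequencing read proportions per bin multiplied by bin number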
Conditions: c terminus: a fixed tail appended
Note to self: values exactly at 4 are t. So protein stability index at or above 4 is t, below is f.

sequence: FDALDDYEHHYHTLHGNVCSMCKR [F21M]
cat: f
--
sequence: FDALDDYEHHYHTLHGNVCSVCKR [F21V]
cat: t
--
sequence: FDALDDYEHHYATLHGNVCSFCKR [H12A]
cat: f
--
sequence: FDALDDYEHHKHTLHGNVCSFCKR [Y11K]
cat: t
--
sequence: FMALDDYEHHYHTLHGNVCSFCKR [D2M]
cat: f
--
sequence: FDALDDKEHHYHTLHGNVCSFCKR [Y7K]
cat: t
--
sequence: FDALDDYEHHYHTLHGTVCSFCKR [N17T]
cat: f
--
sequence: FDALDDYEHGYHTLHGNVCSFCKR [H10G]
cat: f
--
sequence: FDALDDYEHHYHTLHGNVCSFCKH [R24H]
cat: f
--
sequence: FDALDDYEHHYHTLHGNVCSDCKR [F21D]
cat: t
--
sequence: FDALDDYWHHYHTLHGNVCSFCKR [E8W]
cat: f
--
sequence: FDALDDYEHHYHTLHGNVVSFCKR [C19V]
cat: f
--
sequence: FDALDDYEHKYHTLHGNVCSFCKR [H10K]
cat: f
--
sequence: FDALDDYEHHYHTLHGNVCSFCHR [K23H]
cat: f
--
sequence: FDALDYYEHHYHTLHGNVCSFCKR [D6Y]
cat: f
--
sequence: FDALDDYEHHYHTLHKNVCSFCKR [G16K]
cat: f
--
sequence: FDALDDYEHHYWTLHGNVCSFCKR [H12W]
cat: f
--
sequence: FDALDDYEHHYHTLHGNVFSFCKR [C19F]
cat: f
--
sequence: FDALDRYEHHYHTLHGNVCSFCKR [D6R]
cat: f
--
sequence: FDALDDYEHHYGTLHGNVCSFCKR [H12G]
cat: f
--
sequence: FDALDDYEHHYHTLHWNVCSFCKR [G16W]
cat: f
--
sequence: FDALDDYEHHYHTLHGLVCSFCKR [N17L]
cat: f
--
sequence: FDALDDYEHHQHTLHGNVCSFCKR [Y11Q]
cat: t
--
sequence: FDALDDYEVHYHTLHGNVCSFCKR [H9V]
cat: f
--
sequence: FDAYDDYEHHYHTLHGNVCSFCKR [L4Y]
cat: f
--
sequence: FDALDDYEHHYHTLHHNVCSFCKR [G16H]
cat: f
--
sequence: FDALDDYEHHYHTPHGNVCSFCKR [L14P]
cat: t
--
sequence: FDALDDYEHHYITLHGNVCSFCKR [H12I]
cat: f
--
sequence: FDALDDYEHHRHTLHGNVCSFCKR [Y11R]
cat: t
--
sequence: FVALDDYEHHYHTLHGNVCSFCKR [D2V]
cat: f
--
sequence: FDALDDYEHHYHTLHGWVCSFCKR [N17W]
cat: f
--
sequence: FDPLDDYEHHYHTLHGNVCSFCKR [A3P]
cat: f
--
sequence: FDALDDYEHHYHTLHGNVCSFVKR [C22V]
cat: f
--
sequence: FDALDDYEHHYHPLHGNVCSFCKR [T13P]
cat: t
--
sequence: FDALDDYEHHYHCLHGNVCSFCKR [T13C]
cat: t
--
sequence: FDALDDYEHHYHHLHGNVCSFCKR [T13H]
cat: t
--
sequence: FDALDDYEHHYHTLHGNVCSQCKR [F21Q]
cat: t
--
sequence: FDALDDYEHHYHTLHGNVCSPCKR [F21P]
cat: f
--
sequence: FDALDDYEHHPHTLHGNVCSFCKR [Y11P]
cat: f
--
sequence: FDALDDYEHYYHTLHGNVCSFCKR [H10Y]
cat: f
--
sequence: FDALDDYEHHSHTLHGNVCSFCKR [Y11S]
cat: t
--
sequence: FDALDDYVHHYHTLHGNVCSFCKR [E8V]
cat: f
--
sequence: FDALDDYEHHYTTLHGNVCSFCKR [H12T]
cat: f
--
sequence: FDALDDYEHHYHTWHGNVCSFCKR [L14W]
cat: f
--
sequence: FDALDDYEHHYHTLHGNVCTFCKR [S20T]
cat: f
--
sequence: FWALDDYEHHYHTLHGNVCSFCKR [D2W]
cat: f
--
sequence: FDALDDYEHHYHTLRGNVCSFCKR [H15R]
cat: f
--
sequence: FDALDDYEHHYHTLHGNVSSFCKR [C19S]
cat: f
--
sequence: FDALDDAEHHYHTLHGNVCSFCKR [Y7A]
cat: f
--
sequence: FDALDDYEHHYHTLLGNVCSFCKR [H15L]
cat: f
--
sequence: FDALDDYSHHYHTLHGNVCSFCKR [E8S]
cat: f
--
sequence: FDALVDYEHHYHTLHGNVCSFCKR [D5V]
cat: f
--
sequence: FDALDDYEHHYHTLHGNQCSFCKR [V18Q]
cat: t
--
sequence: FDALDDEEHHYHTLHGNVCSFCKR [Y7E]
cat: t
--
sequence: MDALDDYEHHYHTLHGNVCSFCKR [F1M]
cat: t
--
sequence: FDALDWYEHHYHTLHGNVCSFCKR [D6W]
cat: f
--
sequence: FDALDDYEHHYHQLHGNVCSFCKR [T13Q]
cat: f
--
sequence: FDALDDYEHHYHTLHGNVCSFCKI [R24I]
cat: f
--
sequence: FDALDDCEHHYHTLHGNVCSFCKR [Y7C]
cat: t
--
sequence: FDALDKYEHHYHTLHGNVCSFCKR [D6K]
cat: f
--
sequence: FDILDDYEHHYHTLHGNVCSFCKR [A3I]
cat: f
--
sequence: FDALWDYEHHYHTLHGNVCSFCKR [D5W]
cat: f
--
sequence: FDALDDYYHHYHTLHGNVCSFCKR [E8Y]
cat: f
--
sequence: FDALDDYEHHYHTLHGNVCSFDKR [C22D]
cat: f
--
sequence: FDALDDYEHHIHTLHGNVCSFCKR [Y11I]
cat: t
--
sequence: FDALDDYEHHYHTLHGNVCSFGKR [C22G]
cat: f
--
sequence: FDLLDDYEHHYHTLHGNVCSFCKR [A3L]
cat: f
--
sequence: FRALDDYEHHYHTLHGNVCSFCKR [D2R]
cat: f
--
sequence: FDALDDYEHHYHTLHGCVCSFCKR [N17C]
cat: f
--
sequence: FDALDDYEHHYHTLHLNVCSFCKR [G16L]
cat: f
--
sequence: FDALDDYEHHYHTLHGYVCSFCKR [N17Y]
cat: f
--
sequence: FDALDDYEHHYHTCHGNVCSFCKR [L14C]
cat: t
--
sequence: FDALDDYEHHYHTLPGNVCSFCKR [H15P]
cat: f
--
sequence: FDALDDYEHHYHTLHGNVCSFSKR [C22S]
cat: f
--
sequence: FDALDDYEHHYHTLHGNVCSFCKF [R24F]
cat: f
--
sequence: FDALDDYEHHYHTLHGNVCEFCKR [S20E]
cat: t
